Tested on: SN12C
assay-method-text: NCI tumour cell line growth inhibition, 48 h
Calls of active or inactive are those of the source. No stated cut-off is given here; in the data, active = GI50 up to about 1.1 µM and inactive = higher.
test-readout: GI50

Data request: For `CC(=O)OC/C=C/Cn1ncc(=O)[nH]c1=O` , what is its reported GI50?
Data returned: > 100 µM (inactive)

Data request: For CC(C(=O)c1ccccc1)C(c1ccccc1)N1CCOCC1 (stereo unspecified) , what is its reported GI50?
Data returned: > 100 µM (inactive)

Data request: For `CC(=O)Nc1cc2cc(NS(=O)(=O)c3ccc(Cl)c(Cl)c3)ccc2oc1=O` , what is its reported GI50?
Data returned: 25.8 µM (inactive)

Data request: For `CC1=C(O)C(O)=C(C2=C(O)C(O)=C(C)C(=O)C2=O)C(=O)C1=O` , what is its reported GI50?
Data returned: 45 µM (inactive)

Data request: For `C(/Cc1ccc2c(c1)OCO2)=N\N=C1NCCN1` , what is its reported GI50?
Data returned: 84.7 µM (inactive)

Data request: For `CN(C)CCCN=C(N)N` , what is its reported GI50?
Data returned: > 100 µM (inactive)

====

Tested on: IGROV-1
assay-method-text: NCI tumour cell line growth inhibition, 48 h
Counter-ions that a name gives are not always drawn. Activity calls are given as the source filed them. No stated cut-off is given here; in the data, active = GI50 up to about 1.1 µM and inactive = higher.
Log the outcome using a class from 1 for active, -1 for inactive

Data request: Entry `CO[C@@H]1[C@H](OC(=O)NC(=O)CCl)CC[C@]2(CO2)[C@H]1[C@@]1(C)O[C@@H]1CC=C(C)C` : call = ?
Data returned: -1

Data request: Entry CCCC(=O)OC1C(C(O)CO)OC2OC(C)(C)OC21 (stereo not given) : call = ?
Data returned: -1

Data request: Entry CC[C@@H]1C(=O)OC[C@@H]1Cc1cncn1C [PILOCARPINE HYDROCHLORIDE] : call = ?
Data returned: -1

Data request: Entry `CC1(C)N=C(N)N=C(N)N1c1ccc(CCCCCCc2ccc(S(=O)(=O)F)cc2)cc1` : call = ?
Data returned: 1

Data request: Entry `CCOC(=O)Nc1nc2cc(Cn3cccc3)ccc2[nH]1` : call = ?
Data returned: -1

Data request: Entry `Cc1cc(Cc2cc(C)cc(C(C)(C)C)c2O)c(O)c(Cc2cc(C)cc(C(C)(C)C)c2O)c1` : call = ?
Data returned: -1

Data request: Entry Cc1nn(C(=O)c2ccc(Cl)cc2)c2c1C(c1ccccc1)SC(=N)N2 (stereo not given) : call = ?
Data returned: -1

Data request: Entry CCCC(=O)Nc1cc(/C=C/C(=O)N2CC(CCl)c3c2cc(OC(C)=O)c2[nH]cc(C)c32)n(C)c1 (stereo not given) : call = ?
Data returned: 1

Data request: Entry `CCCc1cn2c(/C=N/NC(=N)N)c(-c3cccc([N+](=O)[O-])c3)nc2s1` : call = ?
Data returned: -1

Data request: Entry `CC(=O)OC/C=C/Cn1ncc(=O)[nH]c1=O` : call = ?
Data returned: -1

====

System: DMS-114
assay-method-text: NCI tumour cell line growth inhibition, 48 h
Calls of active or inactive are those of the source. Rule as the data show it: active = GI50 up to about 1.1 µM and inactive = higher.
Log the outcome using a class from active, inactive

Data request: Entry `CC[P+](C)(C)CC` : call = ?
Data returned: inactive

Data request: Entry COc1cc(C2C(Cl)C(=O)N2NC(=O)c2ccc(N)cc2)cc(Br)c1O (centres undefined) : call = ?
Data returned: inactive

Data request: Entry `Cc1c(Cl)cccc1NC(=O)c1cccc([N+](=O)[O-])c1O` : call = ?
Data returned: inactive

Data request: Entry `COc1cc(OC)cc(-c2cc(O)c3cc4c(cc3n2)OCO4)c1` : call = ?
Data returned: active

Data request: Entry `Nc1nc(CCC(=O)Nc2cccc(C(F)(F)F)c2)cc(-c2cccc3ccccc23)n1` : call = ?
Data returned: inactive

Data request: Entry CCOC(=O)C1S/C(=N\c2ccc(OC)c(OC)c2)N=C1C (centres undefined) : call = ?
Data returned: inactive

Data request: Entry `COc1c(C)c2c(c(C)c1Cl)Oc1c(C=O)c(O)c(Cl)c(C)c1C(=O)O2` : call = ?
Data returned: inactive

Data request: Entry `CSc1nc(CO)c(CO)n1C` : call = ?
Data returned: inactive

Data request: Entry `CCN(CC)C(=O)COc1ccc(Br)cc1Br` : call = ?
Data returned: inactive

Data request: Entry CC(C)N(C(=O)C12C3C4C1C1C2C3C41C(=O)O)C(C)C (centres undefined) : call = ?
Data returned: inactive

Data request: Entry `CCP(C)(C)=O` : call = ?
Data returned: inactive

Data request: Entry `CCOC(=O)Nc1nc2cc(Cn3cccc3)ccc2[nH]1` : call = ?
Data returned: inactive

Data request: Entry `O=C(c1ccccc1)c1ccc2n[se]nc2c1` : call = ?
Data returned: inactive

Data request: Entry `Cc1ccc(S(=O)(=O)SCc2ccccc2CSS(=O)(=O)c2ccc(C)cc2)cc1` : call = ?
Data returned: inactive

Data request: Entry CCCC(=O)OC1C(C(O)CO)OC2OC(C)(C)OC21 (centres undefined) : call = ?
Data returned: inactive

Data request: Entry O=C(O)COc1ccc2c3c1C(=O)CCC3CO2 (centres undefined) : call = ?
Data returned: inactive

Data request: Entry N#CCc1ccc(/C(C#N)=C2/OC(=N)C(c3ccc(CC#N)cc3)C2=O)cc1 (centres undefined) : call = ?
Data returned: inactive

Data request: Entry `Cc1cc(NCCCCCCNc2cc(C)nc3ccc(Cl)cc23)c2cc(Cl)ccc2n1` : call = ?
Data returned: inactive

Data request: Entry `CCCCCCCCCc1cc(=O)c2c(O)cccc2o1` : call = ?
Data returned: inactive

Data request: Entry `Cn1c2c(c3ccccc31)CCN(CCCCN1CCc3c(n(C)c4ccccc34)C1=O)C2` : call = ?
Data returned: inactive

Data request: Entry `O=c1[c-](-c2ccccc2)[se]c(-c2ccccc2)[n+]1-c1ccccc1` : call = ?
Data returned: inactive

Data request: Entry COC(=O)C12OCC34C(CC5C(C)=CC(=O)C(O)C5(C)C3C(O)C1O)OC(=O)C(OC(=O)CC(C)C)C24 (centres undefined) : call = ?
Data returned: active

Data request: Entry CC1CC(c2cccc3c2OCO3)=Nc2ccccc2S1 (centres undefined) : call = ?
Data returned: inactive

Data request: Entry `Cc1nc(Nc2ccccc2)sc1C(=O)NNc1ccc([N+](=O)[O-])cc1[N+](=O)[O-]` : call = ?
Data returned: inactive
